Sourced from paper PMC7122770

Biological target: human estrogen receptor (Estrogen Receptor α) (Homo sapiens, UniProt P03372)
Sequence (P03372 1-595): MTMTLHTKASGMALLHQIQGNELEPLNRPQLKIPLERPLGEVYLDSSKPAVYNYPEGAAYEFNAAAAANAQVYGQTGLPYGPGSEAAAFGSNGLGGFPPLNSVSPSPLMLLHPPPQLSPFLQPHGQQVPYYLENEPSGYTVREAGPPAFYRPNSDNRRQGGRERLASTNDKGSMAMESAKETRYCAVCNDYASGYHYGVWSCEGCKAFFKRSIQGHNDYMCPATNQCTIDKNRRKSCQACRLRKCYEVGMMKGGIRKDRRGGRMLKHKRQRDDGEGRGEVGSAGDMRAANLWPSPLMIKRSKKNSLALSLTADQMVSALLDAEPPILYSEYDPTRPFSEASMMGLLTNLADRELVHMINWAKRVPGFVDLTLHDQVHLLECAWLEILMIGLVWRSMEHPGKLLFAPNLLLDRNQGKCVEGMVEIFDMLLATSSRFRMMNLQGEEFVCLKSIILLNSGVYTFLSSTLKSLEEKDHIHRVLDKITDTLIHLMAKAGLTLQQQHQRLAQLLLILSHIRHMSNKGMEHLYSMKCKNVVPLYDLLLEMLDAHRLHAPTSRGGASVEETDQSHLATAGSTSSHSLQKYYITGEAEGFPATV
Assay: Analysis of detected pure substances in ER-CALUX
Type: cell-based
Conditions: pure substance in ER-CALUX; read-out: EC50
Where a name gives a salt, the structure may show the parent alone.
# key: entry, value: pEC50
pEC50 (log units): -log10 of the concentration in mol/L.

[
  {
    "Molecule": "CCOC(=O)c1ccccc1C(=O)OCC [Diethyl phthalate (DEP), Diethyl phthalate]",
    "Test Value": 3.70
  }
]

Field: next molecule
Asked: Hello, please tell me recorded pEC50 for this one: CCCCOC(=O)CC(O)(CC(=O)OCCCC)C(=O)OCCCC [Tributyl citrate (TBC), Tributyl citrate]
Given back: 4.30
